experiment: protein stability index of a GFP-peptide fusion (yeast GPS) (PSI 1-4); higher = more stable; sorted into four equal gates, so the index is relative within each strain
condition parameters: doa10∆
observed property: protein stability index
Please respond with just the number, no unit label.

{"columns": ["sequence content", "protein stability index"],
 "data": [
  ["CYEKVLESINEGNQIIV [BRR2]", 3.09]
]}

[ask] Request the reported protein stability index associated with CEQQPSQEREFSLLVKA [SIN4]
[reply] 3.01

[ask] Next sequence up: RQLAGAIGYEPLSLTHR [DIS3]
[reply] 2.94

[ask] Next sequence up: SSEILSYLSNSLDTSAS [YML103C/NUP188]
[reply] 2.96

[ask] Next sequence up: SPVYDVDPRIINSENDY [NUT1]
[reply] 2.92

[ask] Next sequence up: EFFVQVLTHESLHRQQQ [DLS1]
[reply] 2.99

====

experiment: protein stability index of a GFP-peptide fusion (yeast GPS) (PSI 1-4); higher = more stable; sorted into four equal gates, so the index is relative within each strain
condition parameters: doa10∆
Label t when protein stability index >= 3; otherwise f.

Sample answers from the record:
{"columns": ["sequence content", "discrete label"],
 "data": [
  ["SEVQRTMLELLNQLDGF [RPT6]", "f"],
  ["RRREQTTYSVDDYYKEI [ISW2]", "f"],
  ["LVQKTVQESGNIDYQKG [GRR1]", "t"],
  ["KLSDNISICMILCGIQE [YDL116W/NUP84]", "f"],
  ["FGKTGDQKETKKGESEK [YOR098C/NUP1]", "t"]
]}

[ask] Please indicate if the recorded protein stability index for GKPTVNKKPKNKKKGRK [SRP72] meets or exceeds 3.
[reply] t

[ask] Next sequence up: HRLLQRALFRQLKRWYW [RMP1]
[reply] f

[ask] Next sequence up: GGLGLNLQTADTVIIFD [SNF2]
[reply] t

[ask] Next sequence up: VENSVLIEKVDDTAANN [YIL149C/MLP2]
[reply] f

[ask] Next sequence up: ILSDSPLELSAPIGKHY [DIS3]
[reply] f

[ask] Next sequence up: IWLRKTSQMDLARDTPS [RRP4]
[reply] f

====

List of protein stability index values.
experiment: protein stability index of a GFP-peptide fusion (yeast GPS) (PSI 1-4); higher = more stable; sorted into four equal gates, so the index is relative within each strain
condition parameters: doa10∆
Please respond with just the number, no unit label.

Worked cases, protein stability index given:
{"columns": ["sequence content", "protein stability index"],
 "data": [
  ["YLNSRIIPTTLEEQQQL [YML103C/NUP188]", 1.97],
  ["IEGMEQRIIKELSIRFP [ARP7]", 3.04],
  ["DEVGRRSMLTVVRNMLA [YCG1]", 1.54],
  ["KKFGGKGARSRFQKSYR [RPS16A]", 3.29],
  ["SQSSNANICLTFLESIN [SIN4]", 2.42],
  ["KYLKKRKIGISIDDHPY [RPC31]", 1.41],
  ["KGKYRNRRWTQRRGPLV [RPL4A]", 2.97],
  ["VNTTRRFQYSDDEPAEK [YMR129W/POM152]", 2.87]
]}

[ask] Request the reported protein stability index associated with RSMVRKWQTLIEANVTV [RPS1A]
[reply] 1.65

[ask] Next sequence up: LEGNDIHALAAKLLQEN [FAS1]
[reply] 2.76

[ask] Next sequence up: DKILQLNDRFQTLSSHL [PGD1]
[reply] 2.46

[ask] Next sequence up: SVIVDSKVTVPPSKHST [ESC2]
[reply] 2.75

[ask] Next sequence up: MKAVRKVAEVKKLEGTI [RPT4]
[reply] 3.15

[ask] Next sequence up: PASDDILDNINHNGSAL [ITC1]
[reply] 2.9

[ask] Next sequence up: KFENDELAESTTTKIID [LRP1]
[reply] 2.04

[ask] Next sequence up: KSLAMEHKSQVVLYNYY [CSN12]
[reply] 1.19

[ask] Next sequence up: FEWDISNSDNCPEEFAE [SNF5]
[reply] 3.12

[ask] Next sequence up: LTDLDSPSEFVDVAIPC [RPS0A]
[reply] 2.77

[ask] Next sequence up: GHTLINNYKDLLAVAIA [RPP0]
[reply] 1.19

[ask] Next sequence up: PKTGKVERSEAISKKDL [SEC65]
[reply] 3.63

[ask] Next sequence up: SGPFKVNGVPLRRVNAR [RPL6A]
[reply] 2.67

[ask] Next sequence up: IHSGVLSSIESDLKKRE [YMR153W/NUP53]
[reply] 3.07

[ask] Next sequence up: LDQLLVLEKKTRQASDL [RPN5]
[reply] 3.19
